Tested on: 648629-189-R-J1-PDC spheroids with HUVEC/MSC, viability
TEST DESCRIPTION: Anticancer human tumor 648629-189-R-J1-PDC patient-derived bladder carcinoma cell line growth inhibition [PI3K]; active = viability on the fitted dose curve at most 10% of control; inactive = the rest
EXPERIMENTAL SETUP: second compound 1 µM; first compound 0.316 µM
Your reply should match one of these outcome classes. YES = active, NO = inactive

For orientation, consider the following solved cases.
MOLECULE	ASSIGNED CATEGORY
C=CC(=O)N1CCN(c2nc(=O)n(-c3c(C)ccnc3C(C)C)c3nc(-c4c(O)cccc4F)c(F)cc23)C(C)C1 (configuration not stated) + CC(Nc1ncnc2nc[nH]c12)c1cc2cccc(Cl)c2c(=O)n1-c1ccccc1	NO
CCN1CCN(Cc2ccc(Nc3ncc(F)c(-c4cc(F)c5nc(C)n(C(C)C)c5c4)n3)nc2)CC1 + CC(Nc1ncnc2nc[nH]c12)c1cc2cccc(Cl)c2c(=O)n1-c1ccccc1	NO
C=CC(=O)N1CCN(c2nc(=O)n(-c3c(C)ccnc3C(C)C)c3nc(-c4c(O)cccc4F)c(F)cc23)C(C)C1 (configuration not stated) + Cc1nc(NC(=O)N2CCCC2C(N)=O)sc1-c1ccnc(C(C)(C)C(F)(F)F)c1	NO

For C#Cc1c(F)ccc2cc(O)cc(-c3ncc4c(N5CC6CCC(C5)N6)nc(OCC56CCCN5CC(F)C6)nc4c3F)c12 (configuration not stated) + COc1c(OCCCN2CCOCC2)ccc2c3n(c(=NC(=O)c4cnc(N)nc4)nc12)CCN3 , what call appears in the results of this test? YES

For Cn1nccc1Nc1nccc(-c2ccn(C(CO)c3ccc(Cl)c(F)c3)c(=O)c2)n1 (configuration not stated) + Cc1nc(NC(=O)N2CCCC2C(N)=O)sc1-c1ccnc(C(C)(C)C(F)(F)F)c1 , what call appears in the results of this test? NO

For CCN1CCN(Cc2ccc(Nc3ncc(F)c(-c4cc(F)c5nc(C)n(C(C)C)c5c4)n3)nc2)CC1 + CC(Nc1ccc2c(c1)OCCn1cc(N3C(=O)OCC3C(F)F)nc1-2)C(N)=O , what call appears in the results of this test? NO

For C[C@@H](NC(=O)c1ncnc(N)c1Cl)c1ncc(C(=O)Nc2cc(C(F)(F)F)c(Cl)cn2)s1 + CC(Nc1ncnc2nc[nH]c12)c1cc2cccc(Cl)c2c(=O)n1-c1ccccc1 , what call appears in the results of this test? NO

* * *

Tested on: 648629-189-R-J1-PDC spheroids with HUVEC/MSC, viability
TEST DESCRIPTION: Anticancer human tumor 648629-189-R-J1-PDC cell line growth inhibition [PI3K];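 also: spheroids exposed to agents for seven days before reading; percent of vehicle control luminescence where 100% = DMSO treated spheroids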
EXPERIMENTAL SETUP: second compound 3.16 µM; first compound 0.0316 µM; active compounds read low
Give measured viability, T/C for each item. Keep answers brief.
Answers are plain numbers, in %.

Example cases with answers are listed next.
COMPOUND	TARGET	MEASURE UNIT	ASSAY RESULT
CCCS(=O)(=O)Nc1ccc(F)c(C(=O)c2c[nH]c3ncc(-c4ccc(Cl)cc4)cc23)c1F + Cc1nc(NC(=O)N2CCCC2C(N)=O)sc1-c1ccnc(C(C)(C)C(F)(F)F)c1	648629-189-R-J1-PDC spheroids with HUVEC/MSC, viability	%	63.1
CNC(=O)c1ccc(N2C(=S)N(c3ccc(C#N)c(C(F)(F)F)c3)C(=O)C2(C)C)cc1F + CC(Nc1ncnc2nc[nH]c12)c1cc2cccc(Cl)c2c(=O)n1-c1ccccc1	648629-189-R-J1-PDC spheroids with HUVEC/MSC, viability	%	92
CC(Cn1ccc(-c2ccc(C#N)c(Cl)c2)n1)NC(=O)c1cc(C(C)O)[nH]n1 (stereo not drawn) + Cc1nc(NC(=O)N2CCCC2C(N)=O)sc1-c1ccnc(C(C)(C)C(F)(F)F)c1	648629-189-R-J1-PDC spheroids with HUVEC/MSC, viability	%	53.1
C=CC(=O)N1CCN(c2nc(=O)n(-c3c(C)ccnc3C(C)C)c3nc(-c4c(O)cccc4F)c(F)cc23)C(C)C1 (stereo not drawn) + CC(Nc1ncnc2nc[nH]c12)c1cc2cccc(Cl)c2c(=O)n1-c1ccccc1	648629-189-R-J1-PDC spheroids with HUVEC/MSC, viability	%	103

Batch request: viability, T/C for each of the following compounds.
1. C#Cc1c(F)ccc2cc(O)cc(-c3ncc4c(N5CC6CCC(C5)N6)nc(OCC56CCCN5CC(F)C6)nc4c3F)c12 (stereo not drawn) + Cc1nc(NC(=O)N2CCCC2C(N)=O)sc1-c1ccnc(C(C)(C)C(F)(F)F)c1
2. Cn1ncc(Cl)c1-c1cc(C(=O)NC(CN)Cc2cccc(F)c2)sc1Cl (stereo not drawn) + CC(Nc1ncnc2nc[nH]c12)c1cc2cccc(Cl)c2c(=O)n1-c1ccccc1
3. Cn1ncc(Cl)c1-c1cc(C(=O)NC(CN)Cc2cccc(F)c2)sc1Cl (stereo not drawn) + Cc1nc(NC(=O)N2CCCC2C(N)=O)sc1-c1ccnc(C(C)(C)C(F)(F)F)c1

1: 52.7; 2: 97.7; 3: 55.2

Entry CC(C)n1nc(-c2ccc3oc(N)nc3c2)c2c(N)ncnc21 + CC(Nc1ncnc2nc[nH]c12)c1cc2cccc(Cl)c2c(=O)n1-c1ccccc1 , system 648629-189-R-J1-PDC spheroids with HUVEC/MSC, viability: what viability, T/C was measured? 66.1

* * *

Test system: 648629-189-R-J1-PDC spheroids with HUVEC/MSC, viability
TEST DESCRIPTION: Anticancer human tumor 648629-189-R-J1-PDC cell line growth inhibition [PI3K];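 also: spheroids exposed to agents for seven days before reading; percent of vehicle control luminescence where 100% = DMSO treated spheroids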
EXPERIMENTAL SETUP: second compound 0.0316 µM; first compound 0.1 µM; active compounds read low
MEASUREMENT LABEL: viability, T/C (%)
Give bare numbers, in %.

COMPOUND	viability, T/C / %
CC(C)NCC(C(=O)N1CCN(c2ncnc3c2C(C)CC3O)CC1)c1ccc(Cl)cc1 (stereo not drawn) + CC(Nc1ccc2c(c1)OCCn1cc(N3C(=O)OCC3C(F)F)nc1-2)C(N)=O	99.3
CC1(C)CCC(CN2CCN(c3ccc(C(=O)NS(=O)(=O)c4ccc(NCC5CCOCC5)c([N+](=O)[O-])c4)c(Oc4cnc5[nH]ccc5c4)c3)CC2)=C(c2ccc(Cl)cc2)C1 + Cc1nc(NC(=O)N2CCCC2C(N)=O)sc1-c1ccnc(C(C)(C)C(F)(F)F)c1	100
CCN1CCN(Cc2ccc(Nc3ncc(F)c(-c4cc(F)c5nc(C)n(C(C)C)c5c4)n3)nc2)CC1 + CC(Nc1ccc2c(c1)OCCn1cc(N3C(=O)OCC3C(F)F)nc1-2)C(N)=O	95.8
Cn1ncnc1[C@H]1c2n[nH]c(=O)c3cc(F)cc(c23)N[C@@H]1c1ccc(F)cc1 + Cc1nc(NC(=O)N2CCCC2C(N)=O)sc1-c1ccnc(C(C)(C)C(F)(F)F)c1	64.7
Cn1ncc(Cl)c1-c1cc(C(=O)NC(CN)Cc2cccc(F)c2)sc1Cl (stereo not drawn) + COc1c(OCCCN2CCOCC2)ccc2c3n(c(=NC(=O)c4cnc(N)nc4)nc12)CCN3	78.2

Batch request: viability, T/C for each of the following compounds.
1. Cn1nccc1Nc1nccc(-c2ccn(C(CO)c3ccc(Cl)c(F)c3)c(=O)c2)n1 (stereo not drawn) + CC(Nc1ncnc2nc[nH]c12)c1cc2cccc(Cl)c2c(=O)n1-c1ccccc1
2. C=CC(=O)N1CCN(c2nc(=O)n(-c3c(C)ccnc3C(C)C)c3nc(-c4c(O)cccc4F)c(F)cc23)C(C)C1 (stereo not drawn) + COc1c(OCCCN2CCOCC2)ccc2c3n(c(=NC(=O)c4cnc(N)nc4)nc12)CCN3
3. CNC(=O)c1ccc(N2C(=S)N(c3ccc(C#N)c(C(F)(F)F)c3)C(=O)C2(C)C)cc1F + CC(Nc1ncnc2nc[nH]c12)c1cc2cccc(Cl)c2c(=O)n1-c1ccccc1

95.8
81.9
107

* * *

System: 648629-189-R-J1-PDC spheroids with HUVEC/MSC, viability
TEST DESCRIPTION: Anticancer human tumor 648629-189-R-J1-PDC cell line growth inhibition [PI3K];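 also: spheroids exposed to agents for seven days before reading; percent of vehicle control luminescence where 100% = DMSO treated spheroids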
EXPERIMENTAL SETUP: second compound 1 µM; first compound 0.01 µM; active compounds read low
Give measured viability, T/C for each item. Keep answers brief.
Numbers only, in %.

COMPOUND	MEASURE UNIT	ASSAY RESULT
Cn1ncnc1[C@H]1c2n[nH]c(=O)c3cc(F)cc(c23)N[C@@H]1c1ccc(F)cc1 + CC(Nc1ncnc2nc[nH]c12)c1cc2cccc(Cl)c2c(=O)n1-c1ccccc1	%	82.3

Batch request: viability, T/C for each of the following compounds.
1. CC(=O)c1c(C)c2cnc(Nc3ccc(N4CCNCC4)cn3)nc2n(C2CCCC2)c1=O + Cc1nc(NC(=O)N2CCCC2C(N)=O)sc1-c1ccnc(C(C)(C)C(F)(F)F)c1
2. CC(C)n1nc(-c2ccc3oc(N)nc3c2)c2c(N)ncnc21 + COc1c(OCCCN2CCOCC2)ccc2c3n(c(=NC(=O)c4cnc(N)nc4)nc12)CCN3
3. CC(C)n1nc(-c2ccc3oc(N)nc3c2)c2c(N)ncnc21 + CC(Nc1ccc2c(c1)OCCn1cc(N3C(=O)OCC3C(F)F)nc1-2)C(N)=O
4. CCN1CCN(Cc2ccc(Nc3ncc(F)c(-c4cc(F)c5nc(C)n(C(C)C)c5c4)n3)nc2)CC1 + Cc1nc(NC(=O)N2CCCC2C(N)=O)sc1-c1ccnc(C(C)(C)C(F)(F)F)c1
5. CC(C)n1nc(-c2ccc3oc(N)nc3c2)c2c(N)ncnc21 + CC(Nc1ncnc2nc[nH]c12)c1cc2cccc(Cl)c2c(=O)n1-c1ccccc1

[71.7, 3.58, 48, 75.5, 85.6]

# viability, T/C lookup, item CC(C)n1nc(-c2ccc3oc(N)nc3c2)c2c(N)ncnc21 + Cc1nc(NC(=O)N2CCCC2C(N)=O)sc1-c1ccnc(C(C)(C)C(F)(F)F)c1 64.5

src = PubChem BioAssay AID1963974
